Data provenance is ChEMBL document CHEMBL1821599.

What IC50 was measured for each of the following?
MEASURED_ON: Somatostatin receptor type 4 (Homo sapiens, UniProt P31391)
Sequence (P31391 whole entry): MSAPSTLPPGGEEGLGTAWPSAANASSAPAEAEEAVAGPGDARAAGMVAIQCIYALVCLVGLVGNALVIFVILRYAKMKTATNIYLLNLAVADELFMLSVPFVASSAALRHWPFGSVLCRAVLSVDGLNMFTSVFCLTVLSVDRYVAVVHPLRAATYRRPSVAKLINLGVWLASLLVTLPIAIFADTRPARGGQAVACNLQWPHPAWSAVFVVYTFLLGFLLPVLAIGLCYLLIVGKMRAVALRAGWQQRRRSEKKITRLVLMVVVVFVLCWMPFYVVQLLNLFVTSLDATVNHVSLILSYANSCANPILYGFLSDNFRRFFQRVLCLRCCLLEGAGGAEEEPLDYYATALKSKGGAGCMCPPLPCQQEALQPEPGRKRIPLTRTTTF
ASSAY_OVERVIEW: Displacement of 125I-[LTT]-SRIF-28 from human sst4 receptor in CCL39 cells after 2 hrs by autoradiography
Answers are plain numbers, in nM.

>  <SUBSTANCE_SMILES>
C[C@@H](O)[C@@H]1NC(=O)[C@H](CCCCN)NC(=O)[C@@H](Cc2ccc3ccccc3c2)NC(=O)[C@H](Cc2ccccc2)NC(=O)[C@H](Cc2ccccc2)NC(=O)[C@@H](N)CSSC[C@@H](C(=O)O)NC(=O)[C@H](Cc2ccccc2)NC1=O

>  <MEASURED_ON>
Somatostatin receptor type 4 (Homo sapiens, UniProt P31391)

>  <DATA_VALUE>
41

$$$$

Please turn your attention to the following entry.
Bench note: what IC50 did `C[C@H](N)C(=O)NCC(=O)N[C@H]1CSSC[C@@H](C(=O)O)NC(=O)[C@H](CO)NC(=O)[C@H]([C@@H](C)O)NC(=O)[C@H](Cc2ccccc2)NC(=O)[C@H]([C@@H](C)O)NC(=O)[C@H](CCCCN)NC(=O)[C@H](Cc2ccc(O)cc2)NC(=O)[C@H](Cc2ccccc2)NC(=O)[C@H](Cc2ccccc2)NC(=O)[C@H](CC(N)=O)NC(=O)[C@H](CCCCN)NC1=O` show?
25
